# assay-info: Plasma pharmacokinetics, Cycle 1 (LC-MS, non-compartmental)
# Type: in vivo, human
# settings: human, plasma, po, 3 mg, Cycle 1 Day 8; 3 mg daily oral; read-out: C max, Mean ± SD
recorded-endpoint: Cmax
Answer with the figure and its unit, nothing else.

**Q:** I am curious: what Cmax value has been reported for CC(C)n1nc(-c2ccc3oc(N)nc3c2)c2c(N)ncnc21 [sapanisertib] ?
**A:** 34.4 ng/mL

====

# assay-info: Plasma pharmacokinetics, Cycle 1 (LC-MS, non-compartmental)
# Format: in vivo, human
# settings: human, plasma, po, 3 mg, Cycle 1 Day 8; 3 mg daily oral; read-out: AUC0–24 h, Mean ± SD
recorded-endpoint: AUC(0-t) (ng·h/mL)
Express the result in ng·h/mL but write the number alone.

**Q:** I am curious: what AUC(0-t) value has been reported for CC(C)n1nc(-c2ccc3oc(N)nc3c2)c2c(N)ncnc21 ?
**A:** 361
